Reported pKi against Glycogen synthase kinase-3 beta (Homo sapiens), gathered from multiple publications, appears below.
pKi: −log10 of the molar value.
Measured property: pKi

>>> df
                                   compound                             system_tested  measured_property  value_measured
0  CN(C)Cc1ccnc(-c2cnc3[nH]cc(-c4oncc4-c4cccc(F)c4F)c3c2)c1  Glycogen synthase kinase-3 beta (Homo sapiens)                pKi          > 6.70
1  c1ccc2c(Nc3cc(C4CC4)[nH]n3)nc(Nc3ccc4c(c3)CCC4)nc2c1  Glycogen synthase kinase-3 beta (Homo sapiens)                pKi          > 7.00
2  Fc1cccc2c(Nc3nc(-c4ccccc4Cl)nc4ccccc34)n[nH]c12  Glycogen synthase kinase-3 beta (Homo sapiens)                pKi          > 7.00
3  OCc1cc(Nc2nc(-c3ccccc3)nc3ccccc23)[nH]n1  Glycogen synthase kinase-3 beta (Homo sapiens)                pKi    6.00 to 7.00
4  CC(C)NC(=O)c1cc(Nc2nc(-c3ccccc3)nc3ccccc23)[nH]n1  Glycogen synthase kinase-3 beta (Homo sapiens)                pKi    4.70 to 6.00
5  FC(F)(F)c1ccc2[nH]nc(Nc3nc(-c4ccccc4C(F)(F)F)nc4ccccc34)c2c1  Glycogen synthase kinase-3 beta (Homo sapiens)                pKi          > 7.00
6  COC(=O)c1ccc(Sc2nc(Nc3cc(C)[nH]n3)c3ccccc3n2)cc1  Glycogen synthase kinase-3 beta (Homo sapiens)                pKi    6.00 to 7.00
7  Cc1cnc(NC(CO)CO)nc1-c1c[nH]c(C(=O)NC(CO)c2cccc(Cl)c2)c1 (centres unmarked)  Glycogen synthase kinase-3 beta (Homo sapiens)                pKi          < 6.00

###

pKi: −log10 of the molar value.
Reported pKi against Glycogen synthase kinase-3 beta (Homo sapiens, UniProt P49841), gathered from multiple publications, appears below.
Measured property: pKi

In [3]: df
Out[3]:
                                    molecule  value_measured
 0  Cc1cc(Nc2nc(Nc3ccc(C#N)cc3)nc3ccccc23)n[nH]1          > 7.00
 1  c1cc(Nc2nccc(-c3nccs3)n2)cc(OCCn2cccc2)c1          > 7.00
 2  c1ccc2c(Nc3cc(C4CC4)[nH]n3)nc(Nc3ccc4cc[nH]c4c3)nc2c1          > 7.00
 3  FC(F)(F)c1ccccc1-c1nc2c(c(Nc3n[nH]c4ccccc34)n1)CCCCCC2          > 7.00
 4  Fc1ccc2[nH]nc(Nc3nc(-c4ccccc4Cl)nc4c3CCCCC4)c2c1          > 7.00
 5  CCNc1ncc(C)c(-c2c[nH]c(C(=O)NC(CO)c3cc(F)cc(C(F)(F)F)c3)c2)n1 (stereo not drawn)    6.00 to 7.00
 6  Fc1ccc(Sc2nc(Nc3cc(C4CC4)[nH]n3)c3ccccc3n2)c(F)c1          > 7.00
 7  Cc1cc(Nc2nc(Nc3cc(C4CC4)[nH]n3)c3ccccc3n2)ccc1Cl          > 7.00
 8  Cc1cc(Nc2nc(-c3ccccc3)nc3c2CCCCC3)n[nH]1          > 7.00
 9  CCc1ccccc1-c1nc(Nc2cc(C)[nH]n2)c2ccccc2n1          > 7.00
10  Fc1cccc2c(Nc3nc(-c4ccccc4Cl)nc4c3CCC4)n[nH]c12          > 7.00
11  Fc1cccc(-c2cnoc2-c2c[nH]c3ncc(C4=CCC(NCc5ccccc5)CC4)cc23)c1F (stereo not drawn)    6.00 to 6.70
